Readings of pEC50 for the listed binders
Biological target: Human CD16A^(48R, 158V) fused to IgG Fc (human) (UniProt P08637)
Sequence (P08637 17-208 L66R/F176V): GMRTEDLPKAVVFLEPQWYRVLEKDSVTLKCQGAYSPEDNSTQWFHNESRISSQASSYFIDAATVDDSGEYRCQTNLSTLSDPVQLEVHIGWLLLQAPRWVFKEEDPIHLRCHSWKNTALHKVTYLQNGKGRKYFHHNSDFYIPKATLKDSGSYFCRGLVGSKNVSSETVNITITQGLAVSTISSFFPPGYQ
Assay: ELISA, coated antigen-IgG Fc
Would you please state pEC50, meaning minus log10 of the concentration in mol/L, as a bare number?

Example binders with recorded pEC50:
{"Binder": "scFv CD16A (CD16-4) (scFv) scFv: QVQLVQSGAEVKKPGESLKVSCKASGYSFSDFYIQWVRQAPGQGLEWMGIINPGGASTTYAQKFQGRVTMTRDTSTSTVYMELSSLRSEDTAVYYCARGSAYYYDFADYWGQGTLVTVSSGGSGGSGGSGGSGGSGGSSYVLTQPSSVSVAPGQTARITCGGYNIGRQSVHWYQQKPGQAPVLVIYQDSKRPSGIPERFSGSNSGNTATLTISGTQAMDEADYYCQVWDNYTVVFGGGTKLTVLAAAGSHHHHHH", "pEC50": 8.66}
{"Binder": "scFv CD16A (CD16-3) (scFv) scFv: QVQLVQSGAEVKKPGESLKVSCKASGYTFTNYYMQWVRQAPGQGLEWMGVINPGGGSTSYAQKFQGRVTMTRDTSTSTVYMELSSLRSEDTAVYYCARGSAYYYDFADYWGQGTLVTVSSGGSGGSGGSGGSGGSGGSSYVLTQPSSVSVAPGQTARITCGGHNIGSQSVHWYQQKPGQAPVLVIYQDSKRPSGIPERFSGSNSGNTATLTISGTQAMDEADYYCQVWDNYSVVFGGGTKLTVLAAAGSHHHHHH", "pEC50": 8.92}

Now for a further binder.
Entry under test: scFv CD16A (CD16-7) (scFv) scFv: QVQLVQSGAEVKKPGESLKVSCKASGYTFTNYYMHWVRQAPGQGLEWMGVIEPDGGRRTYAQKFQGRVTMTRDTSTSTVYMELSSLRSEDTAVYYCARGSAYYYDFADYWGQGTLVTVSSGGSGGSGGSGGSGGSGGSEIVLTQSPATLSLSPGERATLSCRGHQGVSGDVHWYQQKPGQAPRLLIYQANKRASGIPARFSGSGSGTEFTLTISSLEPEDFAVYYCQQWDNYSVTFGQGTKVEIKAAAGSHHHHHH . Its pEC50 was 8.74

Measured values drawn from patent US20210169936A1 for this set.
